- target or system: T1, human activated protein C (human), P04070
- T1 chain 1: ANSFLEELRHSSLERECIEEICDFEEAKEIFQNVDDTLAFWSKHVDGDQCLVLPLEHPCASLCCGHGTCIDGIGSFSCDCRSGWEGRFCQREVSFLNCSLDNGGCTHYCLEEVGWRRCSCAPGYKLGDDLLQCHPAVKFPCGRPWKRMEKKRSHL
- T1 chain 2: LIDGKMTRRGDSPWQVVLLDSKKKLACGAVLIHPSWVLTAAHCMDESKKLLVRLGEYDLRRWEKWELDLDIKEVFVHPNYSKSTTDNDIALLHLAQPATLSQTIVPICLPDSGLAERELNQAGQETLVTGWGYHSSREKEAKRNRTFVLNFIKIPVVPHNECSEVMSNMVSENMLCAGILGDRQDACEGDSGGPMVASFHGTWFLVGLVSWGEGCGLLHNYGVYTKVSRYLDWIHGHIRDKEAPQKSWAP
quantity measured: Ki (pM)
Give just the numeric value; pM need not be written.

Request: Returns the measured Ki for the input binder. Input: DrKIn-I (Daboia russelii Kunitz Inhibitor-I), A8Y7N4 25-90 (protein, modifications not checked) QDRPKFCNLAPESGRCRGHLRRIYYNPDSNKCEVFFYGGCGGNDNNFETRKKCRQTCGAPRKGRPT
Result: 53
